Each recorded value in this set is attributed to the supplement of paper PMC10567573.

Each record here notes measured protein stability index.
B1: EPB41L3 (parent)
chain: GSKFRYSGRTQAQTRRASALIDRP

variants of: B1; assay: protein stability index of a GFP-peptide fusion (GPS, HEK-293T) (PSI 1-6); higher = more stable; conditions: c terminus: a fixed tail appended;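 also: lentivirally expressed fusions sorted by FACS into six bins by GFP to DsRed ratio, PSI derived from sequencing read proportions per bin multiplied by bin number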
The reply should be a number, written without any unit.

Solved cases (8 shown):
{"columns": ["seq-text", "protein stability index"],
 "data": [
  ["GSKFRYSSRTQAQTRRASALIDRP [G8S]", 3.46],
  ["GSKFRYSGRTQAQTRRASQLIDRP [A19Q]", 3.22],
  ["GSKFRYSGRTQAQTRRASALKDRP [I21K]", 3.48],
  ["GSKFRYSGRTQAQTRRASALIKRP [D22K]", 2.7],
  ["GSKFRYSGRTQAQTRRASALSDRP [I21S]", 3],
  ["GSKFCYSGRTQAQTRRASALIDRP [R5C]", 2.67],
  ["GSKFRYSGRTQAQTRRASARIDRP [L20R]", 3.28],
  ["GSKFRYSGRTQAQTRRASNLIDRP [A19N]", 3.4]
]}

Recorded protein stability index for GSKFRYSGRTQAQTQRASALIDRP [R15Q] , please?
2.9

Need protein stability index, item GSKFIYSGRTQAQTRRASALIDRP [R5I]
3.07

Value lookup for protein stability index; key = GSKFRYSGRTQAQTRRAWALIDRP [S18W]
2.58
